Biological target: T1, HER2 receptor on the surface of NCI-N87 cells (human, UniProt P04626 23-1255)
T1 construct: whole, on cells; also called HER2 on tumor cell surface
Assay: flow cytometry on NCI-N87 cells, PE-labelled secondary antibody
Readout Label: EC50 (nM)
Response body: numeric value in nM, unit text excluded.

Some solved cases for reference:
[
  {
    "Binder": "HER2 VHH-FC1 fusion protein 2-F03 (Fc fusion, 25; also called 2-F03-FC1; chimeric nanobody 2-F03) EVQLVESGGGLVQPGGSLRLSCAASGLTFRRYHMSWYRQAPGKERELVAVISDTGTTNYAESVKGRFTISRDNSRSTVFLQLNSLKPDDTAVYYCNGRWPAVAADWWGQGTQVTVSSEPKSSDKTHTCPPCPAPEFEGGPSVFLFPPKPKDTLMISRTPEVTCVVVDVSHEDPEVKFNWYVDGVEVHNAKTKPREEQYNSTYRVVSVLTVLHQDWLNGKEYKCKVSNKALPASIEKTISKAKGQPREPQVYTLPPSRDELTKNQVSLTCLVKGFYPSDIAVEWESNGQPENNYKTTPPVLDSDGSFFLYSKLTVDKSRWQQGNVFSCSVMHEALHNHYTQKSLSLSPGK",
    "Units Symbol": "nM",
    "EC50": 1.67
  },
  {
    "Binder": "HER2 VHH-FC1 fusion protein 1-C09 (Fc fusion, 25; also called 1-C09-FC1; 1-C9-FC1) DVQLVESGGGLVQPGGSLRLSCEASGLTFRRYHFSWYRQPPGKERELVAVISDTGSTTNYTDSVKGRFTISRDLARNTVFLQLNSLKPDDTAVYYCNAKWPIIAADWWGQGTQVTVSSEPKSSDKTHTCPPCPAPEFEGGPSVFLFPPKPKDTLMISRTPEVTCVVVDVSHEDPEVKFNWYVDGVEVHNAKTKPREEQYNSTYRVVSVLTVLHQDWLNGKEYKCKVSNKALPASIEKTISKAKGQPREPQVYTLPPSRDELTKNQVSLTCLVKGFYPSDIAVEWESNGQPENNYKTTPPVLDSDGSFFLYSKLTVDKSRWQQGNVFSCSVMHEALHNHYTQKSLSLSPGK",
    "Units Symbol": "nM",
    "EC50": 1.39
  },
  {
    "Binder": "HER2 VHH-FC1 fusion protein 1-G07 (Fc fusion, 25; also called 1-G07-FC1; chimeric nanobody 1-G07) QVQLVESGGGKAQPGGSLRLSCVASRITFRHYDLSWYRQAPGQERELVATVTNGGVITYADSVKGRFTISRDNAKNTVQLQMNNLKPEDTAVYYCNAVWVYLQRLTQNKKENDYWGPGTQVTVSSEPKSSDKTHTCPPCPAPEFEGGPSVFLFPPKPKDTLMISRTPEVTCVVVDVSHEDPEVKFNWYVDGVEVHNAKTKPREEQYNSTYRVVSVLTVLHQDWLNGKEYKCKVSNKALPASIEKTISKAKGQPREPQVYTLPPSRDELTKNQVSLTCLVKGFYPSDIAVEWESNGQPENNYKTTPPVLDSDGSFFLYSKLTVDKSRWQQGNVFSCSVMHEALHNHYTQKSLSLSPGK",
    "Units Symbol": "nM",
    "EC50": 2.48
  }
]

Requested read-out: EC50. Entry: HER2 VHH-FC1 fusion protein 2-C07 (Fc fusion, 25; also called 2-C07-FC1; chimeric nanobody 2-C07) AVQLVESGGGLVQPGGSLRLSCAASGLTFMRYDINWYRQAPGKERELVAALDSSSGRTNYADFTEGRFTISRNNAKNSAYLQMNNLKPEDTASYYCNAQWKRIGADYWGQGTQVTVFSEPKSSDKTHTCPPCPAPEFEGGPSVFLFPPKPKDTLMISRTPEVTCVVVDVSHEDPEVKFNWYVDGVEVHNAKTKPREEQYNSTYRVVSVLTVLHQDWLNGKEYKCKVSNKALPASIEKTISKAKGQPREPQVYTLPPSRDELTKNQVSLTCLVKGFYPSDIAVEWESNGQPENNYKTTPPVLDSDGSFFLYSKLTVDKSRWQQGNVFSCSVMHEALHNHYTQKSLSLSPGK
1.68

Now consider HER2 VHH-FC1 fusion protein 1-B05 (Fc fusion, 25; also called 1-B05-FC1; chimeric nanobody 1-B05) AVQLVESGGGPGGSLRLSCAASGITFFRHTLGWYRQAPGKQRELVASITGGESTNYADSVKSRFTISRDNAKNMVFLQMNSLKPEDTALYYCNSKWDAAGVEFWGKGTLVTVSSEPKSSDKTHTCPPCPAPEFEGGPSVFLFPPKPKDTLMISRTPEVTCVVVDVSHEDPEVKFNWYVDGVEVHNAKTKPREEQYNSTYRVVSVLTVLHQDWLNGKEYKCKVSNKALPASIEKTISKAKGQPREPQVYTLPPSRDELTKNQVSLTCLVKGFYPSDIAVEWESNGQPENNYKTTPPVLDSDGSFFLYSKLTVDKSRWQQGNVFSCSVMHEALHNHYTQKSLSLSPGK .
1.86
